Listed here: items and their measured IC50.
# TESTED_ON: recombinant human STIM1 and Orai1 (Homo sapiens, UniProt Q96D31)
# Construct: c-myc (C)
# Sequence (Q96D31 whole entry): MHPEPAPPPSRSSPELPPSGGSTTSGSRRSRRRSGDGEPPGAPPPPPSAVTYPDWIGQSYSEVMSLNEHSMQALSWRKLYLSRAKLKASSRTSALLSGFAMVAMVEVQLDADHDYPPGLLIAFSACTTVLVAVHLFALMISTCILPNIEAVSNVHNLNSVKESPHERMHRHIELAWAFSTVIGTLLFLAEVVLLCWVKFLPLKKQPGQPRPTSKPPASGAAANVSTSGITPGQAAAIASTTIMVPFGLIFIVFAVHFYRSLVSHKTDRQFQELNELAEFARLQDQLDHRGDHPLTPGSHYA
# EXPERIMENTAL_PROTOCOL: Fluorescence-based assay of store-operated calcium entry in Orai1/STIM1 stable cells (FLIPR)
# REPORTED_CONDITIONS: HEK-293 cells stably expressing human Orai1/STIM1; Fluo-4; Peak-Basal signal; read-out: FLIPR_CRAC: 9 point CRC: O1S1_JR251: IC50: Peak_over_Basal

Check out these entries, answers already filled in.
{"MOL_SMILES": "O=C(Nc1c(F)cccc1F)c1ccc(-c2cc3scnc3cc2Cl)s1", "TESTED_ON": "recombinant human STIM1 and Orai1 (Homo sapiens, UniProt Q96D31)", "IC50": "< 600 nM"}
{"MOL_SMILES": "Cc1cc2c(cc1-c1cnc(NC(=O)c3ccccc3F)s1)OC(F)(F)O2", "TESTED_ON": "recombinant human STIM1 and Orai1 (Homo sapiens, UniProt Q96D31)", "IC50": "< 600 nM"}
{"MOL_SMILES": "Cc1nc2cc(Cl)c(-c3ccc(C(=O)Nc4ccccc4F)s3)cc2o1", "TESTED_ON": "recombinant human STIM1 and Orai1 (Homo sapiens, UniProt Q96D31)", "IC50": "< 600 nM"}
{"MOL_SMILES": "Cc1nc2cc(Cl)c(-c3ccc(C(=O)Nc4c(F)cccc4F)s3)cc2o1", "TESTED_ON": "recombinant human STIM1 and Orai1 (Homo sapiens, UniProt Q96D31)", "IC50": "< 600 nM"}
{"MOL_SMILES": "Cc1nc(-c2cc(-c3ccc(C(=O)Nc4ccccc4F)s3)n(C)n2)no1", "TESTED_ON": "recombinant human STIM1 and Orai1 (Homo sapiens, UniProt Q96D31)", "IC50": "600 to 1200 nM"}
{"MOL_SMILES": "CC(C)n1nc(C(F)(F)F)cc1-c1cnc(NC(=O)c2ccccc2Cl)s1", "TESTED_ON": "recombinant human STIM1 and Orai1 (Homo sapiens, UniProt Q96D31)", "IC50": "> 1200 nM"}

Now turn to the next molecule.
Record Cn1nc(-c2nccs2)cc1-c1ccc(C(=O)Nc2c(F)cncc2F)s1 ; system recombinant human STIM1 and Orai1 (Homo sapiens, UniProt Q96D31); IC50 = 600 to 1200 nM

---

# TESTED_ON: recombinant human STIM1 and Orai1 (Homo sapiens, UniProt Q96D31)
# Construct: c-myc (C)
# EXPERIMENTAL_PROTOCOL: Fluorescence-based assay of store-operated calcium entry in Orai1/STIM1 stable cells (FLIPR)
# REPORTED_CONDITIONS: HEK-293 cells stably expressing human Orai1/STIM1; Fluo-4; Peak-Basal signal; read-out: FLIPR_CRAC: 9 point CRC: O1S1_JR251: IC50: Peak_over_Basal
pIC50: −log10 of the molar value.
RECORDED_METRIC: pIC50

Check out these entries, answers already filled in.
{"COMPOUND": "Cn1nc(-c2ccco2)cc1-c1ccc(C(=O)Nc2ccccc2F)s1", "pIC50": "> 6.22"}
{"COMPOUND": "Cn1nc(-c2ccccc2)cc1-c1ccc(C(=O)Nc2ncccc2F)s1", "pIC50": "5.92 to 6.22"}
{"COMPOUND": "O=C(Nc1ccccc1F)c1ccc(-c2cc3scnc3cc2Cl)s1", "pIC50": "> 6.22"}

Given item Cn1c(-c2cnc(NC(=O)c3ccccc3Cl)s2)cc2ccccc21 , the value recorded as its pIC50 is < 5.92

Given item Cn1nc(-c2ccccc2)cc1-c1ccc(C(=O)Nc2ncc(Cl)cc2F)s1 , the value recorded as its pIC50 is > 6.22

Given item Cn1nc(-c2ccco2)cc1-c1ccc(C(=O)Nc2c(F)cccc2F)s1 , the value recorded as its pIC50 is > 6.22

Given item Cn1nc(C(F)(F)F)cc1-c1cnc(NC(=O)c2ccncc2F)s1 , the value recorded as its pIC50 is > 6.22

Given item Cn1nc(-c2ccccc2F)cc1-c1ccc(C(=O)Nc2c(F)cccc2F)s1 , the value recorded as its pIC50 is > 6.22

Given item Cc1cc2cn(C)nc2cc1-c1ccc(C(=O)Nc2ccccc2Cl)s1 , the value recorded as its pIC50 is 5.92 to 6.22

Given item Cn1nc(-c2nccs2)cc1-c1ccc(C(=O)Nc2ccccc2Cl)s1 , the value recorded as its pIC50 is > 6.22

Given item Cn1nc(C(F)(F)F)cc1-c1cnc(NC(=O)c2ccccc2Cl)s1 , the value recorded as its pIC50 is > 6.22

Given item Cc1cc2c(cc1-c1ccc(NC(=O)c3ccccc3F)s1)OC(F)(F)O2 , the value recorded as its pIC50 is < 5.92

Given item Cc1nc(-c2cc(-c3cnc(NC(=O)c4ccccc4Cl)s3)n(C)n2)no1 [Example 48] , the value recorded as its pIC50 is > 6.22

Given item Cc1cc2scnc2cc1-c1cnc(NC(=O)c2c(F)cccc2F)s1 , the value recorded as its pIC50 is 5.92 to 6.22

Given item Cn1nc(C(F)(F)F)cc1-c1ccc(NC(=O)c2ccccc2F)s1 , the value recorded as its pIC50 is > 6.22

Given item Cn1nc(C(F)(F)F)cc1-c1ccc(NC(=O)c2c(F)cncc2F)s1 , the value recorded as its pIC50 is 5.92 to 6.22

Given item Cn1nc(-c2ccccc2F)cc1-c1ccc(C(=O)Nc2ccccc2Cl)s1 , the value recorded as its pIC50 is > 6.22

Given item Cc1nc2cc(Cl)c(-c3ccc(C(=O)Nc4ccccc4Cl)s3)cc2o1 , the value recorded as its pIC50 is > 6.22

Given item Cc1cc2cn(C)nc2cc1-c1ccc(C(=O)Nc2ccccc2F)s1 , the value recorded as its pIC50 is > 6.22
